- Test system: breast cancer T47D
- assay.protocol: Cytotoxic activity in vitro, WST1 test
- Type: cell-based, human
- experimental.setup: Homo sapiens, T47D cells, Neg = no activity in the applied concentration range, read-out: Cytotoxic activity in vitro as IC50
- Method: The evaluation of cytotoxic activity of the compounds described with Formula 2 was carried out against human cancer cells [brain glioma SNB-19, breast cancer T47D, melanoma C32] using WST1 tests (Table 1).
// reported log10 of IC50 per item
Reminder: these figures are log10 of reported IC50, in µg/mL before transformation.

# count of solved cases: 3
1. C#CCOC(=O)OC[C@]12CC[C@@H](/C(C)=C/P(=O)(OCC)OCC)[C@@H]1[C@H]1CC[C@@H]3[C@@]4(C)CC[C@H](O)C(C)(C)[C@@H]4CC[C@@]3(C)[C@]1(C)CC2 = 1.69
2. C=C(C)[C@@H]1CC[C@]2(CO)CC[C@]3(C)[C@H](CC[C@@H]4[C@@]5(C)CC[C@H](O)C(C)(C)[C@@H]5CC[C@]43C)[C@@H]12 = 1.89
3. C=C(CP(=O)(OCC)OCC)[C@@H]1CC[C@]2(COC(C)=O)CC[C@]3(C)[C@H](CC[C@@H]4[C@@]5(C)CC[C@H](OC(C)=O)C(C)(C)[C@@H]5CC[C@]43C)[C@@H]12 = 1.76

// Input: `C#CC(=O)OC[C@]12CC[C@@H](/C(C)=C/P(=O)(OCC)OCC)[C@@H]1[C@H]1CC[C@@H]3[C@@]4(C)CC[C@H](OC(=O)C#C)C(C)(C)[C@@H]4CC[C@@]3(C)[C@]1(C)CC2` . Output its log10 of IC50 only.
0.45

// Input: `CC#CC(=O)OC[C@]12CC[C@@H](/C(C)=C/P(=O)(OCC)OCC)[C@@H]1[C@H]1CC[C@@H]3[C@@]4(C)CC[C@H](O)C(C)(C)[C@@H]4CC[C@@]3(C)[C@]1(C)CC2` . Output its log10 of IC50 only.
0.98
